- TGT: Tyrosine-protein phosphatase non-receptor type 2 (Homo sapiens)
- Sequence (P17706 whole entry): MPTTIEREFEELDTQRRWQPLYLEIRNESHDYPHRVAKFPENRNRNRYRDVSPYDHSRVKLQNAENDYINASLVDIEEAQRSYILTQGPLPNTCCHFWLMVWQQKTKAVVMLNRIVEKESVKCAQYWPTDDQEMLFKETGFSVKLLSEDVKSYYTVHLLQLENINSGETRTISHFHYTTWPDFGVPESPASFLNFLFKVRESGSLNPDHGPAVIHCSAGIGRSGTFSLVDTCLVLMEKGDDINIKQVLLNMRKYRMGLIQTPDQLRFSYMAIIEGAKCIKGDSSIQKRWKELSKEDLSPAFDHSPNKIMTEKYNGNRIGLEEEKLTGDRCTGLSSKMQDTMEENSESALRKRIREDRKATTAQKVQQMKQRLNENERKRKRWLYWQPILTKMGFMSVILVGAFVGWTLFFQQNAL
- EXPERIMENT DESCRIPTION: Inhibition of TC-PTP after 10 mins
pIC50: −log10 of the molar value.
MEASURED PROPERTY: pIC50

INSERT INTO results (line_notation, numeric_readout) VALUES
  ('O=C(O)COc1c(O)cc(-c2cc(C(F)(F)F)cc(C(F)(F)F)c2)cc1OCc1ccccc1', 4.43),
  ('O=C(O)COc1c(O)cc(-c2ccc(C(F)(F)F)cc2)cc1OCc1ccccc1', 4.02),
  ('O=C(O)COc1c(O)cc(-c2ccc(C(F)(F)F)cc2)cc1OCc1ccc(C(F)(F)F)cc1', 4.36),
  ('O=C(O)COc1c(O)cc(-c2cccc(C(F)(F)F)c2)cc1OCc1ccccc1', 3.92);

====

- EXPERIMENT DESCRIPTION: Inhibition of YOP after 10 mins
Threshold-based label: IC50 under 20 µM gives 1, IC50 not under 20 µM gives 0.

INSERT INTO results (line_notation, assigned_category) VALUES
  ('O=C(O)COc1c(O)cc(-c2cccc(C(F)(F)F)c2)cc1OCc1ccccc1', 0),
  ('O=C(O)COc1c(O)cc(-c2cc(C(F)(F)F)cc(C(F)(F)F)c2)cc1OCc1ccc(C(F)(F)F)cc1', 1),
  ('O=C(O)COc1c(O)cc(-c2cccc(C(F)(F)F)c2)cc1OCc1ccc(C(F)(F)F)cc1', 0),
  ('O=C(O)COc1c(O)cc(-c2cc(C(F)(F)F)cc(C(F)(F)F)c2)cc1OCc1ccccc1', 1),
  ('O=C(O)COc1c(O)cc(-c2ccc(C(F)(F)F)cc2)cc1OCc1ccc(C(F)(F)F)cc1', 1),
  ('O=C(O)COc1c(O)cc(-c2ccc(C(F)(F)F)cc2)cc1OCc1ccccc1', 0);

====

Recorded log10 of IC50 values for a group of compounds are listed next.
Sequence of the target: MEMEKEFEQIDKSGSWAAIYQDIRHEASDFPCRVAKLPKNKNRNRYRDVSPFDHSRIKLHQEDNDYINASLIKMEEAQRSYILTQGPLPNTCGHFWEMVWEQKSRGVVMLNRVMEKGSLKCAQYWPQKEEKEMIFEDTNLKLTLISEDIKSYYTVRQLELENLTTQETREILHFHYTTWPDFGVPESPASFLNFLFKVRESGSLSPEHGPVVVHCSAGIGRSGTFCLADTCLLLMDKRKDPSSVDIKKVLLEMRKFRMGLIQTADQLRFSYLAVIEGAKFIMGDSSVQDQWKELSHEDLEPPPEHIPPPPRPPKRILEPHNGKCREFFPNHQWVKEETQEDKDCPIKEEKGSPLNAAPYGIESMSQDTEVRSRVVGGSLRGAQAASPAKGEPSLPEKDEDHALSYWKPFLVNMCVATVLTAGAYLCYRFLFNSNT
MEASURED PROPERTY: log10 of IC50 (log10 of the value in µM)

INSERT INTO results (line_notation, measured_property, numeric_readout) VALUES
  ('O=C(O)COc1c(O)cc(Br)cc1OCc1ccc(C(F)(F)F)cc1', 'log10 of IC50', 1.86),
  ('O=C(O)COc1c(O)cc(-c2ccccc2)cc1OCc1ccccc1', 'log10 of IC50', 1.97),
  ('O=C(O)COc1c(O)cc(-c2ccc(C(F)(F)F)cc2)cc1OCc1ccc(C(F)(F)F)cc1', 'log10 of IC50', 0.73),
  ('O=C(O)COc1c(O)cc(-c2ccccc2)cc1OCc1ccc(C(F)(F)F)cc1', 'log10 of IC50', 1.23),
  ('COc1cc(COc2cc(-c3ccccc3)cc(O)c2OCC(=O)O)cc(OC)c1', 'log10 of IC50', 1.60);

====

pIC50: −log10 of the molar value.
Let's go through some pIC50 measurements on Tyrosine-protein phosphatase non-receptor type 1 (Homo sapiens) together.
MEASURED PROPERTY: pIC50

INSERT INTO assay_data (line_notation, result_qualifier, numeric_readout) VALUES
  ('O=C(O)COc1c(O)cc(Br)cc1OCc1ccccc1', '=', 3.52),
  ('O=C(O)COc1c(O)cccc1OCc1ccc(C(F)(F)F)cc1', '<', 3.00),
  ('O=C(O)COc1c(O)cc(-c2cc(C(F)(F)F)cc(C(F)(F)F)c2)cc1OCc1ccc(C(F)(F)F)cc1', '=', 5.70);

====

- EXPERIMENT DESCRIPTION: Inhibition of LAR-D1 after 10 mins
- Set-up: species or system Homo sapiens
MEASURED PROPERTY: IC50

INSERT INTO assay_data (line_notation, result) VALUES
  ('O=C(O)COc1c(O)cc(-c2cccc(C(F)(F)F)c2)cc1OCc1ccc(C(F)(F)F)cc1', '> 200 µM'),
  ('O=C(O)COc1c(O)cc(-c2cc(C(F)(F)F)cc(C(F)(F)F)c2)cc1OCc1ccc(C(F)(F)F)cc1', '116 µM'),
  ('O=C(O)COc1c(O)cc(-c2ccc(C(F)(F)F)cc2)cc1OCc1ccccc1', '> 200 µM'),
  ('O=C(O)COc1c(O)cc(-c2cccc(C(F)(F)F)c2)cc1OCc1ccccc1', '> 200 µM'),
  ('O=C(O)COc1c(O)cc(-c2ccc(C(F)(F)F)cc2)cc1OCc1ccc(C(F)(F)F)cc1', '> 200 µM'),
  ('O=C(O)COc1c(O)cc(-c2cc(C(F)(F)F)cc(C(F)(F)F)c2)cc1OCc1ccccc1', '> 200 µM');

====

- Species on record: Homo sapiens
- EXPERIMENT DESCRIPTION: Selectivity for PTP1B over TC-PTP
MEASURED PROPERTY: Selectivity ratio

INSERT INTO assay_data (line_notation, measured_property, numeric_readout) VALUES
  ('O=C(O)COc1c(O)cc(-c2cc(C(F)(F)F)cc(C(F)(F)F)c2)cc1OCc1ccc(C(F)(F)F)cc1', 'Selectivity ratio', 7),
  ('O=C(O)COc1c(O)cc(-c2cc(C(F)(F)F)cc(C(F)(F)F)c2)cc1OCc1ccccc1', 'Selectivity ratio', 5),
  ('O=C(O)COc1c(O)cc(-c2cccc(C(F)(F)F)c2)cc1OCc1ccccc1', 'Selectivity ratio', 5),
  ('O=C(O)COc1c(O)cc(-c2ccc(C(F)(F)F)cc2)cc1OCc1ccc(C(F)(F)F)cc1', 'Selectivity ratio', 5),
  ('O=C(O)COc1c(O)cc(-c2ccc(C(F)(F)F)cc2)cc1OCc1ccccc1', 'Selectivity ratio', 5),
  ('O=C(O)COc1c(O)cc(-c2cccc(C(F)(F)F)c2)cc1OCc1ccc(C(F)(F)F)cc1', 'Selectivity ratio', 5);

====

- TGT: Tyrosine-protein phosphatase non-receptor type 6 (Homo sapiens, UniProt P29350)
- Sequence (P29350 whole entry): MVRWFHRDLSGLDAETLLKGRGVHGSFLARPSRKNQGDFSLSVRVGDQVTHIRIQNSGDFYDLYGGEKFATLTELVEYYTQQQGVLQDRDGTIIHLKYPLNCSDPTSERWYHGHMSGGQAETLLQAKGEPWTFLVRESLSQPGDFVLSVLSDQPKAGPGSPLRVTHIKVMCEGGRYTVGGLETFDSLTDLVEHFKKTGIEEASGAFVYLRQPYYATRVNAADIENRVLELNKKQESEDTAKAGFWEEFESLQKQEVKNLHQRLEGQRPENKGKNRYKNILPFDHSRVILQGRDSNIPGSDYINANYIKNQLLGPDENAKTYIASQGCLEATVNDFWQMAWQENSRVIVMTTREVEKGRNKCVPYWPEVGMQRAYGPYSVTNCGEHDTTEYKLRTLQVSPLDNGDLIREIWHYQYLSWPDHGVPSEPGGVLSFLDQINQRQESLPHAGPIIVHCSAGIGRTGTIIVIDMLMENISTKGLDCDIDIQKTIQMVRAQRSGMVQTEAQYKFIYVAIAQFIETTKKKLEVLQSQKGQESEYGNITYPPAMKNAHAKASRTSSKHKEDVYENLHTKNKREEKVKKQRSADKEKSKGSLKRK
MEASURED PROPERTY: IC50 (µM)

INSERT INTO measurements (line_notation, numeric_readout) VALUES
  ('O=C(O)COc1c(O)cc(-c2cc(C(F)(F)F)cc(C(F)(F)F)c2)cc1OCc1ccc(C(F)(F)F)cc1', 4),
  ('O=C(O)COc1c(O)cc(-c2cccc(C(F)(F)F)c2)cc1OCc1ccc(C(F)(F)F)cc1', 13),
  ('O=C(O)COc1c(O)cc(-c2ccc(C(F)(F)F)cc2)cc1OCc1ccccc1', 25),
  ('O=C(O)COc1c(O)cc(-c2cccc(C(F)(F)F)c2)cc1OCc1ccccc1', 38);

====

Target sequence: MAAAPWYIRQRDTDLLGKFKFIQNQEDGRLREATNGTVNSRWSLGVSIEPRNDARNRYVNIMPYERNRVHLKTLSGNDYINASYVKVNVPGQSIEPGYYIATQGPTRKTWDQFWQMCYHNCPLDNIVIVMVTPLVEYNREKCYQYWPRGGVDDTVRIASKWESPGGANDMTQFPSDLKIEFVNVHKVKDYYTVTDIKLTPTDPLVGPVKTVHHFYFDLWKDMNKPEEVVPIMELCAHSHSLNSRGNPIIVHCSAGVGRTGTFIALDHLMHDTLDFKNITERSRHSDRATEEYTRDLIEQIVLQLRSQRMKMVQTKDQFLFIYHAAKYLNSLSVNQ
Catalogue of IC50 readings, one per entry.
MEASURED PROPERTY: IC50 (µM)

INSERT INTO assay_data (line_notation, numeric_readout) VALUES
  ('O=C(O)COc1c(O)cc(-c2cccc(C(F)(F)F)c2)cc1OCc1ccccc1', 52),
  ('O=C(O)COc1c(O)cc(-c2cc(C(F)(F)F)cc(C(F)(F)F)c2)cc1OCc1ccccc1', 20);
